Please go through the items and note down their OD490.
biological target: Fc; experiment: phage ELISA, Fc coated
One number for each entry, in OD.

Before answering, review these 2 worked examples.
DLK1 H12 (monoclonal scFv-phage) (scFv, V domains shown) VH: QVQLVQSGGGLVKPGGSLRLSCAASEFTFSDYYMSWVRQAPGKGLEWLSYISGSGITTYYADSVKGRFTISRDNGKKSLYLEMNSLRAEDTAVYYCARLQGHCSGGACSNWFDAWGQGTLITVSS VL: DIQMTQSPSSLSASVGDRLTITCRASQSILTYLNWYQQKPGKAPKLLIYAASSLQRGVPSRFSGSGSGTDFTLTISGLQPEDFATYYCQQGYGTPYTFGQGTKVDIK    0.0539
DLK1 H06 (monoclonal scFv-phage) (scFv, V domains shown) VH: QVQLVQSGGGLIQPGGSLRLSCAASGFTFSLYGMSWVRQAPGKGLEWVSSIPGSGTRTHYADSVKGRFTISRDNSKNTLFLQMNSLRAEDTAVYYCAKSTAYLFDYWGPGTLVTVSS VL: DIQMTQSPATLSLSPGERATLSCRASQSIRHYLAWYQQKPGQAPRLLIHGASSRATGIPDRFSGSGSGTDFTLTISRLEPEDFAVYYCQHYGSPLHSFGPGTKVEIK    0.0766

For every item in the list below, what is its measured OD490?
1. ACVR2B A07 (monoclonal scFv-phage) (scFv, V domains shown, scFv linker not given) VH: QLVESGGGLVRPGRSLTLSCTASGFTFNDYAMHWVRQAPGKGLEWVSGISWNTNSKAYADSVKGRFIISRDNAKNSLYLEMNSLRAEDTAVYYCVRDGGRFYYGLDVWGQGTSVTVSS VL: DIVMTQTPVSSPVTLGQPASISCRSSQSLIHSDGNTYLSWIQQRPGQPPRLLIYKISNRFSGVPDRFSGSGAGTDFTLKISRVEAEDVGVYYCAETSQVPHTFGQGTKVEIK
2. DLK1 A05 (monoclonal scFv-phage) (scFv, V domains shown) VH: QMQLVESGGGLVQPGRSLRLSCAASGFTFDEHAMHWVRQAPGKGLEWVSGINWNSGKTGYADSVKGRFTISRDNGKNSLYLQMNSLRAEDTAVYYCAKSGGYGGNTNWYFDLWGRGTLVTVSS VL: QFVLTQPPSVSGAPGQNVTISCIGTSSNIGVGYDVHWYQQVPGTAPKLLVYGNNNRPSGVPDRFSGSKSGTSASLAITGLQAEDEADYYCQSYDSRLGVVFGGGTKLTVL

*A*
1. 0.0443
2. 0.0704
